target: MMP-8h (Homo sapiens (Human), UniProt P22894); experiment: Inhibition constant (Ki) on MMP-8h; assay type: biochemical; conditions: read-out: Ki MMP-8h; human MMP-8
Sequence (P22894 101-467): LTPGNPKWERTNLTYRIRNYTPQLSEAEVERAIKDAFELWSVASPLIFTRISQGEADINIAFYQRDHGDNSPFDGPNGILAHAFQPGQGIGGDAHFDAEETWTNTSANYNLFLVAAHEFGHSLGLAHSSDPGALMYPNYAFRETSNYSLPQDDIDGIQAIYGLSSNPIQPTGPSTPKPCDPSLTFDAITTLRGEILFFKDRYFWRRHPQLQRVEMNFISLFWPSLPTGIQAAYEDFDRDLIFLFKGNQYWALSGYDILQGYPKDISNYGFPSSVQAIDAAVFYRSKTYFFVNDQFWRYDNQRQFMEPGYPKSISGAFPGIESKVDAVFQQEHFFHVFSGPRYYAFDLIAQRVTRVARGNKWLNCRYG
pKi: −log10 of the molar value.
Quick list: pKi per entry.

Example results:
MOLECULE	pKi
NC(=O)CC[C@H](NC(=O)[C@H](CCC(N)=O)NC(=O)CCc1cc(-c2ccc(-c3ccccc3)cc2)no1)C(N)=O [Compound 22]	< 6.00
NC(=O)[C@@H](CCC(=O)O)NC(=O)[C@@H](CCC(=O)O)NC(=O)CCc1cc(-c2ccc(-c3cccc(Cl)c3)cc2)no1 [Compound 7]	< 6.00

Enquiry: Give the measured pKi of NC(=O)[C@H](CCC(=O)O)NC(=O)[C@H](CCC(=O)O)NC(=O)CCc1noc(-c2ccccc2)n1 [Compound 26] .
Return: < 5.30

Enquiry: Try this molecule next: NC(=O)[C@H](CCC(=O)O)NC(=O)[C@H](CCC(=O)O)NC(=O)CCc1ccc(-c2cccc(Cl)c2)cc1 [Compound 57]
Return: < 6.00
